Target: recombinant human HDAC8 (Homo sapiens (Human))
Experiment: HDAC8 inhibition: recombinant HDAC8 fluorometric assay
Conditions: recombinant human HDAC8, substrate Ac-Arg-His-Lys-Lys(ε-acetyl)-AMC
Protocol: A competitive inhibitory assay of HDAC8 was carried out by using recombinant HDAC8 and a commercial substrate Ac-Arg-His-Lys-Lys(ε-acetyl)-AMC. Compounds were tested for their ability to inhibit histone deacetylase 8 using an in vitro deacetylation assay. […] The fluorescence signal was measured by a FlexStation3 plate reader (excitation wave length 340-360 nm; emission wave length 440-465 nm). The IC50 was calculated after normalization and curve fitting using XLfit4.0 software. […]
readout: pIC50
Lab note — pIC50 values are minus log10 of concentrations in M.

Worked cases, answers included:
molecule: COc1cncc(-c2ccnc(NC3CCc4ccc(C(=O)NO)cc4C3)n2)c1 (stereo not shown)
obsValue: 6.28
--
molecule: O=C(NO)c1ccc2c(c1)CC(NC(=O)c1ccc(Cl)cc1)CN2 (stereo not shown)
obsValue: 5.62

Which measured pIC50 value corresponds to O=C(NO)c1ccc2c(c1)CC(NS(=O)(=O)c1ccc(Cl)cc1)CN2 (stereo not shown) ?
5.84

Cool, now O=C(NO)c1ccc2c(c1)CC(NC(=O)c1ccc(Cl)c(Cl)c1)CN2 (stereo not shown)
5.58

====

Molecular target: recombinant human HDAC8 (Homo sapiens (Human), UniProt Q9BY41)
Sequence (Q9BY41 whole entry): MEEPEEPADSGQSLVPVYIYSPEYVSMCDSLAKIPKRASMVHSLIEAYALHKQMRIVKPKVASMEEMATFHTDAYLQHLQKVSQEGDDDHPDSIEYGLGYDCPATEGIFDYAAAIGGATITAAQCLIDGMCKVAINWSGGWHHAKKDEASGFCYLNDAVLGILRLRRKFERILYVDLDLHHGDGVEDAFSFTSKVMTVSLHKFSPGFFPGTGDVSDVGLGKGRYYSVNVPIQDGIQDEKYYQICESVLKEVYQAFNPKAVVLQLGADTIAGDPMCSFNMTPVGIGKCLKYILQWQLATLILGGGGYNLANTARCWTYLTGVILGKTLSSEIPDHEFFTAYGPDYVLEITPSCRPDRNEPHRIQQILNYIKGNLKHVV
Assay: HDAC8 inhibition: recombinant HDAC8 fluorometric assay
Settings: recombinant human HDAC8, substrate Ac-Arg-His-Lys-Lys(ε-acetyl)-AMC
Entries and their measured IC50 follow.
Units required after the number.

Worked cases, answers included:
molecule: CCOc1cc(C)nc(NC2CCc3ccc(C(=O)NO)cc3C2)n1 (stereo not drawn)
obsValue: 290 nM

molecule: O=C(NO)c1ccc2c(c1)CC(NC(=O)c1ccc(-c3ccccc3)cc1)CN2 (stereo not drawn)
obsValue: 2850 nM

Which measured IC50 value corresponds to O=C(NO)c1ccc2c(c1)CC(Nc1nccc(-c3ccc(Cl)nc3)n1)CC2 (stereo not drawn) ?
900 nM

Cool, now COc1ccc(S(=O)(=O)NC2CNc3ccc(C(=O)NO)cc3C2)cc1OC (stereo not drawn)
1220 nM

Cool, now O=C(NO)c1ccc2c(c1)CC(Nc1nccc(-c3ccc(Oc4ccccc4)cc3)n1)CC2 (stereo not drawn)
1440 nM

Cool, now O=C(NO)c1ccc2c(c1)CC(Nc1nccc(-c3ccc(F)cc3)n1)CC2 (stereo not drawn)
260 nM

Cool, now O=C(NO)c1ccc2c(c1)CC(NC(=O)c1cccc(Cl)c1)CN2 (stereo not drawn)
3370 nM

====

Biological target: recombinant human HDAC8 (Homo sapiens (Human), UniProt Q9BY41)
Assay: HDAC8 inhibition: recombinant HDAC8 fluorometric assay
Details: recombinant human HDAC8, substrate Ac-Arg-His-Lys-Lys(ε-acetyl)-AMC
readout: pIC50
Lab note — pIC50 values are minus log10 of concentrations in M.

compound: O=C(NO)c1ccc2c(c1)CC(Nc1ccc(Br)cc1)CC2 (stereo not drawn)
pIC50: 6.17
//
compound: O=C(NO)c1ccc2c(c1)CC(NS(=O)(=O)c1ccc(Cl)c(Cl)c1)CC2 (stereo not drawn)
pIC50: 6.33
//
compound: CN1CC(NS(=O)(=O)c2ccc(Cl)cc2)Cc2cc(C(=O)NO)ccc21 (stereo not drawn)
pIC50: 6.12
//
compound: O=C(NO)c1ccc2c(c1)CC(Nc1ccc([N+](=O)[O-])cn1)CC2 (stereo not drawn)
pIC50: 6.03

Request body: readout pIC50, system recombinant human HDAC8 (Homo sapiens (Human), UniProt Q9BY41), query Cc1ccc(-c2ccnc(NC3CCc4ccc(C(=O)NO)cc4C3)n2)c(F)c1 (stereo not drawn) . Return the value.
5.96

Cool, now COc1ccc(-c2ccnc(NC3CCc4ccc(C(=O)NO)cc4C3)n2)c(OC)c1 (stereo not drawn)
5.91

Cool, now O=C(NO)c1ccc2c(c1)CC(NS(=O)(=O)c1ccc(Cl)cc1)CC2 (stereo not drawn)
6.07

Cool, now O=C(NO)c1ccc2c(c1)CC(NS(=O)(=O)c1cccc(C(F)(F)F)c1)CC2 (stereo not drawn)
6.43

Cool, now COc1ccc(S(=O)(=O)NC2CCc3ccc(C(=O)NO)cc3C2)cc1OC (stereo not drawn)
6.41

====

Target: recombinant human HDAC8 (Homo sapiens (Human))
Assay: HDAC8 inhibition: recombinant HDAC8 fluorometric assay
Conditions: recombinant human HDAC8, substrate Ac-Arg-His-Lys-Lys(ε-acetyl)-AMC
Entries and their measured pIC50 follow.
Lab note — pIC50 values are minus log10 of concentrations in M.

compound: CN(C)c1cccc(-c2ccnc(NC3CCc4ccc(C(=O)NO)cc4C3)n2)c1 (stereo not shown) [Example 16]
pIC50: 6.10
--
compound: Cc1ccc(-c2ccnc(NC3CCc4ccc(C(=O)NO)cc4C3)n2)cn1 (stereo not shown) [Example 25]
pIC50: 6.32
--
compound: O=C(NO)c1ccc2c(c1)CC(Nc1nccc(-c3ccc(Cl)cc3Cl)n1)CC2 (stereo not shown) [Example 20]
pIC50: 5.82

Request body: readout pIC50, system recombinant human HDAC8 (Homo sapiens (Human)), query O=C(NO)c1ccc2c(c1)CC(Nc1nccc(-c3ccc(C(F)(F)F)cc3)n1)CC2 (stereo not shown) [Example 19] . Return the value.
5.77

====

System: p21 promoter-luciferase construct
Assay: p21 reporter gene induction in HeLa cells transfected with p21 promoter-luciferase construct
Format: cell-based
Conditions: relative gene level of p21 induced compared to MS275 at 3 μM
Entries and their measured p21 RP3 follow.
Reply briefly: the number, and no unit.

compound: O=C(NO)c1ccc2c(c1)CC(NS(=O)(=O)c1cccc(C(F)(F)F)c1)CC2 (centres unmarked)
p21 RP3: 0.13
--
compound: O=C(NC1CCc2ccc(C(=O)NO)cc2C1)OCc1cccnc1 (centres unmarked)
p21 RP3: 0.15
--
compound: O=C(NO)c1ccc2c(c1)CC(Nc1nccc(-c3ccc(F)cc3)n1)CC2 (centres unmarked)
p21 RP3: 0.10
--
compound: O=C(NO)c1ccc2c(c1)CC(Nc1nccc(-c3ccc(Cl)cc3Cl)n1)CC2 (centres unmarked)
p21 RP3: −0.71

Request body: readout p21 RP3, system p21 promoter-luciferase construct, query O=C(NO)c1ccc2c(c1)CC(NC(=O)c1cccc(C(F)(F)F)c1)CN2 (centres unmarked) . Return the value.
0.07

====

Test system: p21 promoter-luciferase construct
Assay: p21 reporter gene induction in HeLa cells transfected with p21 promoter-luciferase construct
Assay type: cell-based
Conditions: relative gene level of p21 induced compared to MS275 at 3 μM
Entries and their measured p21 RP3 follow.
Reply briefly: the number, and no unit.

compound: O=C(NO)c1ccc2c(c1)CC(NS(=O)(=O)c1cccc(OC(F)(F)F)c1)CN2 (centres unmarked) [Example 63]
obsValue: 0.11

Which measured p21 RP3 value corresponds to COc1cccc(C(=O)NC2CNc3ccc(C(=O)NO)cc3C2)c1 (centres unmarked) [Example 54] ?
0.03

Cool, now O=C(NO)c1ccc2c(c1)CC(Nc1nccc(-c3cnc4ccccc4c3)n1)CC2 (centres unmarked) [Example 34]
0.42

====

Target: recombinant human HDAC8 (Homo sapiens (Human), UniProt Q9BY41)
Assay: HDAC8 inhibition: recombinant HDAC8 fluorometric assay
Settings: recombinant human HDAC8, substrate Ac-Arg-His-Lys-Lys(ε-acetyl)-AMC
pIC50: −log10 of the molar value.
Output Y for pIC50 not less than 6; output N otherwise.

Some solved cases for reference:
compound: O=C(NO)c1ccc2c(c1)CC(NS(=O)(=O)c1cccnc1)CC2 (centres unmarked)
label: Y
//
compound: O=C(NO)c1ccc2c(c1)CC(Nc1nccc(-c3ccc4ccccc4c3)n1)CC2 (centres unmarked)
label: N
//
compound: Cc1cc(Cl)ccc1-c1ccnc(NC2CCc3ccc(C(=O)NO)cc3C2)n1 (centres unmarked)
label: N
//
compound: O=C(NO)c1ccc2c(c1)CC(Nc1nccc(-c3ccc(N4CCOCC4)nc3)n1)CC2 (centres unmarked)
label: Y
//
compound: O=C(NO)c1ccc2c(c1)CC(Nc1ccc([N+](=O)[O-])cc1)CC2 (centres unmarked)
label: N
//
compound: O=C(NO)c1ccc2c(c1)CC(Nc1nccc(C(F)(F)F)n1)CC2 (centres unmarked)
label: Y

Is pIC50 for O=C(NO)c1ccc2c(c1)CC(NS(=O)(=O)c1ccc(F)cc1F)CC2 (centres unmarked) at or above 6?
Y

Cool, now COc1cccc(C(=O)NC2CNc3ccc(C(=O)NO)cc3C2)c1 (centres unmarked)
N

Cool, now O=C(NO)c1ccc2c(c1)CC(NS(=O)(=O)c1ccc(Cl)cc1Cl)CC2 (centres unmarked)
Y

====

System: p21 promoter-luciferase construct
Test: p21 reporter gene induction in HeLa cells transfected with p21 promoter-luciferase construct
Format: cell-based
Details: relative gene level of p21 induced compared to MS275 at 3 μM
Output 1 (yes) for p21 RP3 not less than 0.3; output 0 (no) otherwise.

Some solved cases for reference:
molecule: O=C(NO)c1ccc2c(c1)CC(Nc1nccc(-c3cccnc3Cl)n1)CC2 (centres unmarked) [Example 30]
label: 1 (yes)
//
molecule: O=C(NO)c1ccc2c(c1)CC(NS(=O)(=O)c1ccc(Cl)c(Cl)c1)CC2 (centres unmarked) [Example 47]
label: 0 (no)
//
molecule: COc1ccc(S(=O)(=O)NC2CCc3ccc(C(=O)NO)cc3C2)cc1OC (centres unmarked) [Example 45]
label: 0 (no)
//
molecule: O=C(NO)c1ccc2c(c1)CC(NS(=O)(=O)c1ccc(Cl)cc1Cl)CC2 (centres unmarked) [Example 46]
label: 1 (yes)
//
molecule: COc1ccc(-c2ccnc(NC3CCc4ccc(C(=O)NO)cc4C3)n2)cn1 (centres unmarked) [Example 28]
label: 0 (no)

Is p21 RP3 for CCCCS(=O)(=O)NC1CCc2ccc(C(=O)NO)cc2C1 (centres unmarked) [Example 39] at or above 0.3?
0 (no)

Cool, now O=C(NO)c1ccc2c(c1)CC(NS(=O)(=O)c1ccc(Cl)cc1)CN2 (centres unmarked) [Example 60]
1 (yes)

Cool, now O=C(NO)c1ccc2c(c1)CC(NS(=O)(=O)c1cccc(Cl)c1)CN2 (centres unmarked) [Example 61]
0 (no)

Cool, now Cc1cc(Cl)ccc1-c1ccnc(NC2CCc3ccc(C(=O)NO)cc3C2)n1 (centres unmarked) [Example 21]
0 (no)

Cool, now O=C(NO)c1ccc2c(c1)CC(NS(=O)(=O)c1ccc(F)cc1F)CC2 (centres unmarked) [Example 44]
1 (yes)
